Settings: human gut metagenome, 24 h, 2 µM; further: call rule not given here
measurement-name: Bacterial Biotransformation

Solved cases (6 shown):
What Bacterial Biotransformation value was documented for this molecule, Nc1nc(NC2CC2)c2ncn([C@H]3C=C[C@@H](CO)C3)c2n1.Nc1nc(NC2CC2)c2ncn([C@H]3C=C[C@@H](CO)C3)c2n1.O=S(=O)(O)O [ABACAVIR SULFATE] ?
Compound metabolized

What Bacterial Biotransformation value was documented for this molecule, Nc1nnc(-c2cccc(Cl)c2Cl)c(N)n1 ?
Compound NOT metabolized

What Bacterial Biotransformation value was documented for this molecule, CC(C)(C)NCC(O)c1cc(Cl)c(N)c(Cl)c1 (stereo not drawn) ?
Compound NOT metabolized

What Bacterial Biotransformation value was documented for this molecule, CCc1cccc2c3c([nH]c12)C(CC)(CC(=O)O)OCC3 (stereo not drawn) ?
Compound metabolized

What Bacterial Biotransformation value was documented for this molecule, COc1ccc(/C=C/C(=O)Nc2ccccc2C(=O)O)cc1OC ?
Compound metabolized

What Bacterial Biotransformation value was documented for this molecule, Cc1nc(Nc2ncc(C(=O)Nc3c(C)cccc3Cl)s2)cc(N2CCN(CCO)CC2)n1 [DASATINIB ANHYDROUS] ?
Compound metabolized

***
What Bacterial Biotransformation value was documented for this molecule, CCN(CC)C(=O)C1(c2ccccc2)CC1CN (stereo not drawn) ?
Compound NOT metabolized

What Bacterial Biotransformation value was documented for this molecule, CCN(CC)CCNC(=O)c1ccc(NC(C)=O)cc1 [ACECAINIDE] ?
Compound NOT metabolized

What Bacterial Biotransformation value was documented for this molecule, CC#C[C@]1(O)CC[C@H]2[C@@H]3CCC4=CC(=O)CCC4=C3[C@@H](c3ccc(N(C)C)cc3)C[C@@]21C ?
Compound NOT metabolized

What Bacterial Biotransformation value was documented for this molecule, CC(=O)O[C@]1(C(C)=O)CC[C@H]2[C@@H]3C=C(C)C4=CC(=O)CC[C@]4(C)[C@H]3CC[C@@]21C [MEGESTROL ACETATE] ?
Compound metabolized

What Bacterial Biotransformation value was documented for this molecule, CN1CCC[C@@H]1CCO[C@](C)(c1ccccc1)c1ccc(Cl)cc1.O=C(O)/C=C/C(=O)O [CLEMASTINE FUMARATE] ?
Compound metabolized

What Bacterial Biotransformation value was documented for this molecule, CC(=O)OCC(CCn1cnc2cnc(N)nc21)COC(C)=O ?
Compound metabolized

What Bacterial Biotransformation value was documented for this molecule, COc1ccc(Cc2nccc3cc(OC)c(OC)cc23)cc1OC ?
Compound metabolized

What Bacterial Biotransformation value was documented for this molecule, N#Cc1ccc2[nH]cc(CCCCN3CCN(c4ccc5oc(C(N)=O)cc5c4)CC3)c2c1 ?
Compound metabolized

What Bacterial Biotransformation value was documented for this molecule, CCCN(CCC)CCc1cccc2c1CC(=O)N2 ?
Compound NOT metabolized

What Bacterial Biotransformation value was documented for this molecule, CCN(CC)CCNC(=O)c1cc(S(C)(=O)=O)ccc1OC [TIAPRIDE] ?
Compound NOT metabolized

What Bacterial Biotransformation value was documented for this molecule, N[C@@H](Cc1ccc(N(CCCl)CCCl)cc1)C(=O)O ?
Compound metabolized

What Bacterial Biotransformation value was documented for this molecule, CC1Cc2ccccc2N1NC(=O)c1ccc(Cl)c(S(N)(=O)=O)c1 (stereo not drawn) [INDAPAMIDE] ?
Compound NOT metabolized

---

Test: The drug is tested on WLS-006 corresponding to human gut metagenome with ENA study accession number: PRJEB37062 and ENA sample accession number: ERS12561741 for biotransformation under anaerobic condition. The drug concentrations were measured over 9 timepoints collected between 0 and 24 hours of incubation by liquid-chromatography-coupled mass spectrometry (LC–MS)
Details: 2 µM
measurement-name: Bacterial Biotransformation

Solved cases (4 shown):
What Bacterial Biotransformation value was documented for this molecule, CN1CCC(OC(c2ccccc2)c2ccccc2)CC1 ?
Compound NOT metabolized

What Bacterial Biotransformation value was documented for this molecule, CN(C)CCC=C1c2ccccc2COc2ccccc21 [DOXEPIN] ?
Compound NOT metabolized

What Bacterial Biotransformation value was documented for this molecule, CC(=O)Oc1ccc(C(c2ccc(OC(C)=O)cc2)c2ccccn2)cc1 ?
Compound metabolized

What Bacterial Biotransformation value was documented for this molecule, Cc1ccccc1C(OCCN(C)C)c1ccccc1.O=C(O)CC(O)(CC(=O)O)C(=O)O (stereo not drawn) [ORPHENADRINE CITRATE] ?
Compound metabolized

***
What Bacterial Biotransformation value was documented for this molecule, COc1ccc2c(c1)c(CC(=O)O)c(C)n2C(=O)c1ccc(Cl)cc1 ?
Compound metabolized

What Bacterial Biotransformation value was documented for this molecule, CC(C)c1c(CN(C)C(C)Cc2ccccc2)n(C)n(-c2ccccc2)c1=O (stereo not drawn) ?
Compound metabolized

What Bacterial Biotransformation value was documented for this molecule, N=C(N)NC(=O)Cc1c(Cl)cccc1Cl ?
Compound NOT metabolized

What Bacterial Biotransformation value was documented for this molecule, CC(=O)CCCCn1c(=O)c2c(ncn2C)n(C)c1=O ?
Compound NOT metabolized

What Bacterial Biotransformation value was documented for this molecule, COc1ccc(/C=C/C(=O)Nc2ccccc2C(=O)O)cc1OC ?
Compound NOT metabolized

What Bacterial Biotransformation value was documented for this molecule, CCOC(=O)[C@H](CCc1ccccc1)N[C@@H](C)C(=O)N1CCC[C@H]1C(=O)O.O=C(O)/C=C\C(=O)O [ENALAPRIL MALEATE] ?
Compound NOT metabolized

What Bacterial Biotransformation value was documented for this molecule, CCS(=O)(=O)CCn1c([N+](=O)[O-])cnc1C ?
Compound metabolized

What Bacterial Biotransformation value was documented for this molecule, COc1ccnc(C[S+]([O-])c2nc3ccc(OC(F)F)cc3[nH]2)c1OC (stereo not drawn) ?
Compound metabolized

What Bacterial Biotransformation value was documented for this molecule, CN(C)CCc1c[nH]c2ccc(CS(=O)(=O)N3CCCC3)cc12 ?
Compound NOT metabolized

What Bacterial Biotransformation value was documented for this molecule, CCN(CC)CCOC(=O)C1(C2CCCCC2)CCCCC1 ?
Compound metabolized

# credit: ChEMBL document CHEMBL5724914
